# System: wt-TMD8 diffuse large B-cell lymphoma cells
# ASSAY NOTES: Cell proliferation assay wt-TMD8 (ATPlite, 120 hours)
# Format: cell-based
# MEASUREMENT SETUP: B-cell; wt-TMD8 cells, 120 hours, ATPlite; read-out: IC50 wt-TMD8
pIC50: −log10 of the molar value.
VALUE TYPE: pIC50

[in] Recorded pIC50 of COc1ccc(F)cc1C(=O)NCc1ccc(-c2nc3n4c(cnc(N)c24)/C=C/CCN[C@H](C)CC(=O)N[C@@H]2CCC[C@@H]3C2)cc1 , please.
[out] > 7.00

[in] How about Nc1ncc2n3c(nc(-c4ccc(C(=O)Nc5cc(C6CC6)ccn5)cc4)c13)[C@@H]1CC[C@H](C1)NC(=O)CCOCC/C=C/2 ?
[out] > 7.00

[in] Now the molecule Nc1ncc2c3c1c(-c1ccc(C(=O)Nc4cc(C(F)(F)F)ccn4)cc1)nn3[C@@H]1CCCN(C1)C(=O)CCCCCC(O)/C=C/2 (stereo partly drawn)
[out] > 7.00

----------
# TARGET DESC: BTK C481S (Homo sapiens (Human), UniProt Q06187, C481S)
# Sequence (Q06187 whole entry C481S): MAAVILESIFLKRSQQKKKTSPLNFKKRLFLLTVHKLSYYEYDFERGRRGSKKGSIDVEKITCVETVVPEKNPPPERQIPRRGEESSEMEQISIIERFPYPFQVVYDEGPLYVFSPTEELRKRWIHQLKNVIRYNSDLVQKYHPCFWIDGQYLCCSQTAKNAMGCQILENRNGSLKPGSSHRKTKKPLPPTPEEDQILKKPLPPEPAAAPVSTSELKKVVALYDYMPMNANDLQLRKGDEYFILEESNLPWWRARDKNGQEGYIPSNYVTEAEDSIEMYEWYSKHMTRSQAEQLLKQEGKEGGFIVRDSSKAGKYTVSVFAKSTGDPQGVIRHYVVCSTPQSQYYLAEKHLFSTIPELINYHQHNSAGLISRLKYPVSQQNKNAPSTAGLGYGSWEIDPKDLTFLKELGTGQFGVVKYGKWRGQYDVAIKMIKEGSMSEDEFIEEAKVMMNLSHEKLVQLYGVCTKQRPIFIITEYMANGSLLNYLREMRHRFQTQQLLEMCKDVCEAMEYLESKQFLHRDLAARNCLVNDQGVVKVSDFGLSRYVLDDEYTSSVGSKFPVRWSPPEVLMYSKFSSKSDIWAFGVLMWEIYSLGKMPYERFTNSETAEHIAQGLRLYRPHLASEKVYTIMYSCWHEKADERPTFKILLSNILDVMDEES
# ASSAY NOTES: Binding kinetics measurements (Surface Plasmon Resonance) on BTK C481S
# MEASUREMENT SETUP: binding affinity by Surface Plasmon Resonance (SPR)
VALUE TYPE: Kd

[in] Please report the recorded Kd for COc1ccc(F)cc1C(=O)NCc1ccc(-c2nn3c4c(cnc(N)c24)/C=C/CCCCC(=O)N[C@@H]2CCC[C@@H]3C2)cc1 [Example 51] .
[out] < 5 nM

[in] Now consider C[C@@H]1CCn2nc(-c3ccc(C(=O)Nc4cc(C(F)(F)F)ccn4)cc3)c3c(N)ncc(c32)/C=C/CCOCC(=O)N1 [Example 59] and answer again.
[out] < 5 nM

[in] Another compound to check: Nc1ncc2c3c1c(-c1ccc(C(=O)Nc4cc(C(F)(F)F)ccn4)cc1)nn3[C@@H]1CCC[C@H](C1)NC(=O)CCCC/C=C\C2 [Example 98b]
[out] < 5 nM

[in] // next record N#Cc1ccnc(NC(=O)c2ccc(-c3nn4c5c(cnc(N)c35)/C=C/COCCC(=O)N[C@@H]3CC[C@@H]4C3)cc2)c1 [Example 183]
[out] < 5 nM

[in] Next entry: COc1ccc(F)cc1C(=O)NCc1ccc(-c2nn3c4c(cnc(N)c24)/C=C/CCCC(=O)N[C@@H]2CCC[C@@H]3C2)cc1 [Example 50]
[out] < 5 nM

[in] Param item: Nc1ncc2n3c(nc(-c4ccc(C(=O)Nc5cc(C(F)(F)F)ccn5)cc4)c13)[C@@H]1CCC[C@H](C1)NC(=O)CCCCC/C=C/2 [Example 131]
[out] < 5 nM

[in] Cool, now CN1C/C=C/c2cnc(N)c3c(-c4ccc(C(=O)Nc5cc(C(F)(F)F)ccn5)cc4)nn(c23)[C@@H]2CCC[C@H](C2)NC(=O)CC1 [Example 17]
[out] < 5 nM

[in] Another compound: C[C@@H]1CCn2nc(-c3ccc(C(=O)Nc4cc(C(F)(F)F)ccn4)cc3)c3c(N)ncc(c32)/C=C/CO[C@H](C)C(=O)N1 [Example 57]
[out] < 5 nM

[in] Also check Nc1ncc2c3c1c(-c1ccc(C(=O)Nc4cc(C(F)(F)F)ccn4)cc1)nn3[C@@H]1CCC[C@H](C1)NC(=O)COCC/C=C/2 [Example 6]
[out] < 5 nM

[in] Also C[C@H]1OC/C=C/c2cnc(N)c3c(-c4ccc(C(=O)Nc5cc(C(F)(F)F)ccn5)cc4)nn(c23)[C@@H]2CCC[C@H](C2)NC1=O [Example 28] , if possible.
[out] < 5 nM

[in] Now give it for C[C@@H]1CCn2nc(-c3ccc(C(=O)Nc4cc(C(F)(F)F)ccn4)cc3)c3c(N)ncc(c32)/C=C/COCCC(=O)N1 [Example 71] too.
[out] < 5 nM

[in] C[C@@H]1CC(=O)N[C@@H]2CCC[C@H](C2)c2nc(-c3ccc(C(=O)Nc4cc(C(F)(F)F)ccn4)cc3)c3c(N)ncc(n23)/C=C/CCN1 [Example 179] , same question.
[out] < 5 nM

[in] Now try Nc1ncc2c3c1c(-c1ccc(C(=O)Nc4cc(C(F)(F)F)ccn4)cc1)nn3[C@@H]1CCC[C@H](C1)NC(=O)CCNCC/C=C/2 [Example 33] .
[out] < 5 nM

[in] Can you check Nc1ncc2c3c1c(-c1ccc(C(=O)Nc4cc(C(F)(F)F)ccn4)cc1)nn3[C@@H]1CCC[C@H](C1)NC(=O)CCCOC/C=C/2 [Example 27] next?
[out] < 5 nM

[in] What do we get for N#Cc1ccnc(NC(=O)c2ccc(-c3nc4n5c(cnc(N)c35)/C=C/CCCCCC(=O)N[C@@H]3CCC[C@@H]4C3)cc2)c1 [Example 184] ?
[out] < 5 nM

[in] Lookup N#Cc1ccnc(NC(=O)c2ccc(-c3nn4c5c(cnc(N)c35)/C=C/CCOCCC(=O)N[C@@H]3CCC[C@@H]4C3)cc2)c1 [Example 155]
[out] < 5 nM

[in] Subsequent entry: Nc1ncc2c3c1c(-c1ccc(C(=O)Nc4cc(C(F)(F)F)ccn4)cc1F)nn3[C@@H]1CCC[C@H](C1)NC(=O)CNC/C=C/2 [Example 8]
[out] < 5 nM

[in] Continue with Nc1ncc2c3c1c(-c1ccc(C(=O)Nc4cc(C(F)(F)F)ccn4)cc1)nn3[C@@H]1CCC[C@H](C1)C(=O)NCCCC/C=C/2 [Example 1]
[out] < 5 nM

[in] Another compound: Nc1ncc2c3c1c(-c1ccc(C(=O)Nc4cc(C(F)(F)F)ccn4)cc1)nn3[C@@H]1CCC[C@H](C1)NC(=O)COC/C=C/2 [Example 49]
[out] < 5 nM

[in] Proceed to CC1NC/C=C/c2cnc(N)c3c(-c4ccc(C(=O)Nc5cc(C(F)(F)F)ccn5)cc4)nn(c23)[C@@H]2CCC[C@H](C2)NC1=O (single isomer, unassigned) [Example 146]
[out] < 5 nM

[in] What do you have for Nc1ncc2c3c1c(-c1ccc(C(=O)Nc4cc(C(F)(F)F)ccn4)cc1)nn3[C@@H]1CCC[C@H](C1)NC(=O)[C@H]1CN(C/C=C/2)CCN1 [Example 141] ?
[out] < 5 nM

[in] Next: COc1ccc(F)cc1C(=O)NCc1ccc(-c2nn3c4c(cnc(N)c24)/C=C/CO[C@H](C)C(=O)N[C@@H]2CCC[C@@H]3C2)cc1 [Example 53]
[out] < 5 nM

[in] Continue with Nc1ncc2c3c1c(-c1ccc(C(=O)Nc4cc(C(F)(F)F)ccn4)cc1)nn3[C@@H]1CCC[C@H](C1)C(=O)NCCCCCCC2 [Example 115]
[out] < 5 nM

[in] Try this compound next: Nc1ncc2c3c1c(-c1ccc(C(=O)Nc4cc(C(F)(F)F)ccn4)cc1)nn3[C@@H]1CCC[C@H](C1)NC(=O)CCOCC/C=C/2 [Example 26]
[out] < 5 nM

----------
# TARGET DESC: BTK T474I (Homo sapiens (Human), UniProt Q06187, T474I)
# Sequence (Q06187 whole entry T474I): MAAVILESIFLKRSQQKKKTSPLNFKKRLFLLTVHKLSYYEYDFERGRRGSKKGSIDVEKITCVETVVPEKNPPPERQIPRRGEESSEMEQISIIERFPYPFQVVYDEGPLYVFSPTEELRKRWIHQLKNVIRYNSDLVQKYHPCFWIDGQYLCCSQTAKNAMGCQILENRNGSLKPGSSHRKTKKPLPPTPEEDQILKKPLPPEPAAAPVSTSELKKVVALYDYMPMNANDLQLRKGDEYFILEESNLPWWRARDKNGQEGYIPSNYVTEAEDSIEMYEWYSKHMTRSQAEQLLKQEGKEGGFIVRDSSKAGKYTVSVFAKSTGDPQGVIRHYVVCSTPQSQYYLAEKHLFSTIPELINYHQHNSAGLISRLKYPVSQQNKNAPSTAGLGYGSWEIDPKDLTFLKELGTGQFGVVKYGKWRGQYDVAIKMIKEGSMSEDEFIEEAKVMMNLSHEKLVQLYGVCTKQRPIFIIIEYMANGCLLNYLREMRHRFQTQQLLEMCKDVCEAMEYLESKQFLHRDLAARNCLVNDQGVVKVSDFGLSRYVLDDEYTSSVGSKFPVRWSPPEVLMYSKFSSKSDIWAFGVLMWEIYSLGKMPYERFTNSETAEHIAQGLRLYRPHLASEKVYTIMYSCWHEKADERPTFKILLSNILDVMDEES
# ASSAY NOTES: Binding kinetics measurements (Surface Plasmon Resonance) on BTK T474I
# MEASUREMENT SETUP: binding affinity by Surface Plasmon Resonance (SPR)
VALUE TYPE: Kd

[in] Can you look up the measured Kd of Nc1ncc2c3c1c(-c1ccc(C(=O)Nc4cc(F)ccn4)cc1)nn3[C@@H]1CCC[C@H](C1)NC(=O)CCOCC/C=C/2 for me?
[out] < 2 nM

[in] Would you mind doing C[C@@H]1CCn2nc(-c3ccc(C(=O)Nc4cc(C(F)(F)F)ccn4)cc3)c3c(N)ncc(c32)/C=C/CCN2CC[C@H]2C(=O)N1 as well?
[out] < 2 nM

[in] Continue with Nc1ncc2c3c1c(-c1ccc(C(=O)Nc4cc(C(F)(F)F)ccn4)cc1)nn3[C@@H]1CCC[C@H](C1)NC(=O)COCC/C=C/2
[out] < 2 nM

[in] Now consider Nc1ncc2c3c1c(-c1ccc(C(=O)Nc4cc(C(F)(F)F)ccn4)cc1)nn3[C@@H]1CCC[C@H](C1)C(=O)NCCCCC/C=C/2 .
[out] < 2 nM

[in] And Nc1ncc2c3c1c(-c1ccc(C(=O)Nc4cc(C(F)(F)F)ccn4)cc1)nn3[C@@H]1CCC[C@H](C1)NC(=O)CCCC[C@H](O)/C=C/2 ?
[out] < 2 nM

[in] Would you kindly repeat that for COc1ccc(F)cc1C(=O)NCc1ccc(-c2nc3n4c(cnc(N)c24)/C=C/CCOCCC(=O)N[C@@H]2CC[C@@H]3C2)cc1 ?
[out] < 2 nM

[in] Further, for C[C@@H]1CC(=O)N[C@@H]2CCC[C@H](C2)c2nc(-c3ccc(C(=O)Nc4cc(C(F)(F)F)ccn4)cc3)c3c(N)ncc(n23)/C=C/CCN1 ?
[out] < 2 nM

[in] And the next one, Nc1ncc2c3c1c(-c1ccc(C(=O)Nc4ccccn4)cc1)nn3[C@@H]1CCC[C@H](C1)NC(=O)CCCCC/C=C/2 ?
[out] < 2 nM

[in] Next compound: N#Cc1ccnc(NC(=O)c2ccc(-c3nn4c5c(cnc(N)c35)/C=C/CCOCCC(=O)N[C@@H]3CCC[C@@H]4C3)cc2)c1
[out] < 2 nM

[in] Also need Nc1ncc2c3c1c(-c1ccc(C(=O)Nc4cc(C(F)(F)F)ccn4)cc1)nn3[C@@H]1CCC[C@H](C1)NC(=O)CCCC/C=C/2 , thanks.
[out] < 2 nM

[in] What do you get for CN1C/C=C/c2cnc(N)c3c(-c4ccc(C(=O)Nc5cc(C(F)(F)F)ccn5)cc4)nn(c23)[C@@H]2CCC[C@H](C2)NC(=O)CC1 ?
[out] < 2 nM

[in] Similarly, C[C@@H]1CCn2nc(-c3ccc(C(=O)Nc4cc(C(F)(F)F)ccn4)cc3)c3c(N)ncc(c32)/C=C/CO[C@H](C)C(=O)N1 ?
[out] < 2 nM

[in] Same read-out for C[C@H]1OC/C=C/c2cnc(N)c3c(-c4ccc(C(=O)Nc5cc(C(F)(F)F)ccn5)cc4)nn(c23)[C@@H]2CCC[C@H](C2)NC1=O ?
[out] < 2 nM

[in] Thanks! And Nc1ncc2n3c(nc(-c4ccc(C(=O)Nc5cc(C(F)(F)F)ccn5)cc4)c13)[C@@H]1CCC[C@H](C1)NC(=O)CCCC/C=C/2 ?
[out] < 2 nM

[in] Now give it for C[C@H]1CC(=O)N[C@@H]2CCC[C@H](C2)n2nc(-c3ccc(C(=O)Nc4cc(C(F)(F)F)ccn4)cc3)c3c(N)ncc(c32)/C=C/CCN1C too.
[out] < 2 nM

[in] Okay, and Nc1ncc2c3c1c(-c1ccc(C(=O)Nc4cc(C(F)(F)F)ccn4)cc1F)nn3[C@@H]1CCC[C@H](C1)NC(=O)CCC/C=C/2 ?
[out] < 2 nM

[in] Ok, now CN1C/C=C/c2cnc(N)c3c(-c4ccc(C(=O)Nc5cc(C(F)(F)F)ccn5)cc4)nn(c23)[C@@H]2CCC[C@H](C2)NC(=O)CCC1
[out] < 2 nM

[in] Lookup Nc1ncc2c3c1c(-c1ccc(C(=O)Nc4cc(C(F)(F)F)ccn4)cc1)nn3[C@@H]1CCC[C@H](C1)NC(=O)CCNC/C=C/2
[out] < 2 nM

[in] What do you have for C[C@@H]1CC(=O)N[C@@H]2CCC[C@H](C2)n2nc(-c3ccc(C(=O)Nc4cc(C(F)(F)F)ccn4)cc3)c3c(N)ncc(c32)/C=C/CN1C ?
[out] < 2 nM
